B1: VH:VL chains; a variant is named by its letters at X, in order (parent)
chain 1: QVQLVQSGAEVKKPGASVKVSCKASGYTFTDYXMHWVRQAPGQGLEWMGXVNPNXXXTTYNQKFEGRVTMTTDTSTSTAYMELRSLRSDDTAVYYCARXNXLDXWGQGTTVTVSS
chain 2: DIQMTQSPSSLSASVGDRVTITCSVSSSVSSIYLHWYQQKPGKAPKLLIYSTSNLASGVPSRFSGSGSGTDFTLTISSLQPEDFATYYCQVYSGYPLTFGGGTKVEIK

Variants of: B1
Test: yeast display scFab, FACS + sequencing
Measurement Type: non-specific binding call

Reference set (8 entries):
YRKGGFVA	binds
YKRGSFGA	binds
SAARDAVA	no binding
VGGGADGV	no binding
SAGTGSWD	no binding
YAKRDALA	no binding
VAGAGYGA	binds
YRRRGAVY	binds

Need non-specific binding call of SKAGDAWD , thanks.
binds

Next variant: VRRRGAVV
binds

Next variant: FRAGDYLV
no binding
